# Tested on: HIV-1 (wild type)
# assay-protocol: P24 cellular assay (EC50), data identified with * in Table 9, wild type
# Type: cell-based
pEC50: −log10 of the molar value.
result-type: pEC50

In [3]: df
Out[3]:
                                   compound  result
0  O=C(CSc1nc(-c2cccc3ccccc23)c[nH]1)Nc1ccccc1[N+](=O)[O-] [Entry 401]  > 7.30

* * *

The following compounds are listed with their measured IC50 values.
# experimental-target: HIV-1 RT enzyme (wild type) (Human immunodeficiency virus type 1 group M subtype B)
# Construct: The reverse transcriptase (RT) enzyme assay has been adapted to a 96-well microtiter plate format
# assay-protocol: Reverse transcriptase (RT) enzymatic assay (IC50), PicoGreen fluorescence, wild type
# Type: biochemical
# particulars: RT enzymatic assay, wild type; read-out: IC50 WT
result-type: IC50

In [3]: df
Out[3]:
                                smiles_input    result
 0  CN(C(=O)CSc1nnnn1-c1cccc2ccccc12)c1ccccc1Cl  > 100 nM
 1  O=C(CSc1nnnn1-c1cccc2ccccc12)Cc1ccccc1[N+](=O)[O-]  > 100 nM
 2  CCc1ccccc1-n1nnnc1SCC(=O)Nc1ccccc1[N+](=O)[O-]  > 100 nM
 3  O=C(CSc1nnnn1-c1cccc2ccccc12)Nc1ccccc1-c1ccccc1  > 100 nM
 4  O=C(COc1ccccc1-c1ccccc1)Nc1ccccc1[N+](=O)[O-]  > 100 nM
 5  CC(C)(C)c1ccc(-n2nnnc2SCC(=O)Nc2ccc(N3CCOCC3)cc2Cl)c(Cl)c1   < 50 nM
 6  O=C(CSc1nnnn1-c1cccc2ccccc12)NCc1ccccc1[N+](=O)[O-]  > 100 nM
 7  CC(C)(C)c1ccc(-n2nnnc2SCC(=O)Nc2ccc(S(=O)(=O)c3ccc(Cl)cc3)cc2Cl)c(Cl)c1   < 50 nM
 8  Cc1cc(C(F)(F)F)cc(-n2nnnc2SCC(=O)Nc2ccc(S(N)(=O)=O)cc2Cl)c1Cl   < 50 nM
 9  O=C(CSCc1nnnn1-c1cccc2ccccc12)Nc1ccccc1[N+](=O)[O-]  > 100 nM
10  c1ccc2c(-n3nnnc3SCc3nc4ccccc4[nH]3)cccc2c1  > 100 nM
11  O=C(CS(=O)(=O)c1ccccc1-c1cccc2ccccc12)Nc1ccccc1Cl  > 100 nM
12  CC(C)CS(=O)(=O)c1ccc(NC(=O)CSc2nnnn2-c2ccc(C(C)(C)C)cc2Cl)c(Cl)c1   < 50 nM
13  COC(=O)c1ccc(NC(=O)CSc2ccccc2-c2ccc(C)cc2Cl)c(Cl)c1   < 50 nM
14              O=C(CSc1ccccc1Br)Nc1ccccc1Cl  > 100 nM
15  CSc1ccccc1NC(=O)CSc1nnnn1-c1cccc2ccccc12  > 100 nM
16  O=C(CSc1nnnn1-c1cccc2ccccc12)Nc1ccc(-c2ccccc2)cc1  > 100 nM
17    O=C(CSc1nnnn1-c1cccc2ccccc12)Nc1ccccn1  > 100 nM

* * *

# experimental-target: HIV-1 RT enzyme (wild type) (Human immunodeficiency virus type 1 group M subtype B, UniProt P04585)
# Construct: The reverse transcriptase (RT) enzyme assay has been adapted to a 96-well microtiter plate format
# assay-protocol: Reverse transcriptase (RT) enzymatic assay (IC50), PicoGreen fluorescence, wild type
# Format: biochemical
# particulars: RT enzymatic assay, wild type; read-out: IC50 WT
# Procedure: Reverse Transcriptase (RT) Assays Enzymatic Assay (IC50) The enzymatic assay employed is described as follows: The reverse transcriptase (RT) enzyme assay has been adapted to a 96-well microtiter plate format and uses PicoGreen™ as a fluorescent intercalator. More explicitly, the HIV-1 RT enzyme was thawed and appropriately diluted into Tris/HCl 50 mM pH 7.8 containing NaCl 60 mM, MgCl2∘6H2O 2 mM, DTT 6 mM, GSH 2 mM and 0.02% w/v Chaps to give ≈10 nM enzyme. […]
The following compounds are listed with their measured IC50 values.
result-type: IC50

In [3]: df
Out[3]:
                               smiles_input    result
0  CC(C)(C)c1ccc(-n2nnnc2SCC(=O)Nc2ccc(S(N)(=O)=O)cc2Cl)c(Cl)c1   < 50 nM
1  CC(C)(C)OC(=O)N1CCN(c2ccc(NC(=O)CSc3nnnn3-c3ccc(C(C)(C)C)cc3Cl)c(Cl)c2)CC1   < 50 nM
2  Cc1ccc(-c2ccccc2SCC(=O)Nc2ccccc2Cl)c(Cl)c1   < 50 nM
3  COc1ccc(NC(=O)CSc2nnnn2-c2cccc3ccccc23)c(Cl)c1   < 50 nM
4   O=C(CSc1nnnn1-c1cccc2ccccc12)Nc1ccccc1O  > 100 nM
5  Cc1cc(C)c(-n2nnnc2SCC(=O)Nc2ccccc2[N+](=O)[O-])c(Br)c1   < 50 nM
6  Cc1cccc(C)c1-n1nnnc1SCC(=O)Nc1ccccc1[N+](=O)[O-]  > 100 nM
7  CC(=O)c1ccccc1NC(=O)CSc1nnnn1-c1cccc2ccccc12  > 100 nM
8  O=C(COc1ccccc1-c1cccc2ccccc12)Nc1ccccc1[N+](=O)[O-]  > 100 nM
